// data source = PubChem BioAssay

- procedure_details: reduction of polyQ htt aggregates in cells – imaging, exon1htt(103Q)mCFP cells, high-content imaging, primary screen (AID 483);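 further: compound exposure lasted 3 days before fixation; percent of the per-plate median nuclei count of sample wells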
- condition_context: exon1htt(103Q)mCFP cell line, aggregate imaging, at 2 µM; measured here: cell count, toxicity
test_readout: nuclei count (%)
A number alone suffices; assume %.

These solved cases illustrate the format of a correct answer.
O=C(Nc1ccc(N2C(=O)C3C4C=CC(C4)C3C2=O)cc1)Nc1cccnc1 (stereo not drawn)	104
COc1ccccc1N1CCN(C(=O)C2CC=CCC2C(=O)O)CC1 (stereo not drawn)	87.8
Cc1ccc(S(=O)(=O)N(CC(=O)N2CCC(C(N)=O)CC2)Cc2ccc(F)cc2)cc1	91.9
O=c1ccn(Cc2ccccc2Cl)cc1	102
Cc1ccc(Cn2c(=O)c3ccccc3n3c(CCC(=O)O)nnc23)cc1	90
Cc1occc1C(=O)N1CCN(c2ncccn2)CC1	102
O=C(CN(c1ccc(F)cc1)S(=O)(=O)c1ccc2c(c1)OCCO2)Nc1cccnc1	93.5
N#CCc1ccc(NC(=O)Nc2cccc(Cl)c2)cc1	85.4

Kindly indicate its recorded nuclei count. Item: Cc1cc(N2C(=O)CC(N3CCN(c4ccc(C(=O)c5cccs5)cc4)CC3)C2=O)no1 (stereo not drawn)
112

Give me measured nuclei count, please, for this molecule: `O=C1CCCc2c1nn(-c1ccccc1)[n+]2[O-]`
107

Look up nuclei count of `NC(=O)C1(N2CCCCC2)CCN(CC(=O)Nc2cc(Cl)ccc2Cl)CC1` and report it.
86.2

Give the reported value of nuclei count for this record: CCOc1cc(C(=O)NCC2CCCO2)cc(OCC)c1OCC (stereo not drawn)
106

Find the measured nuclei count of `C1CCN=C(Nc2nc3c(s2)CCCC3)CC1` and report it.
118

Quick one: give measured nuclei count for COC(=O)c1ccccc1NC(=O)C12CCC(C)(C(=O)O1)C2(C)C (stereo not drawn)
106

Provide only the value of recorded nuclei count for `COC(=O)Cn1c(CCS(=O)(=O)c2ccc(C)cc2)nc2ccccc21`
57.3

Kindly indicate its recorded nuclei count. Item: `O=C(c1ccc(Cl)cc1)N1CCCOC1`
99.2

----------
- measured_on: Alpha-2C adrenergic receptor (Homo sapiens) (UniProt P18825)
- Sequence (P18825 whole entry, looked up): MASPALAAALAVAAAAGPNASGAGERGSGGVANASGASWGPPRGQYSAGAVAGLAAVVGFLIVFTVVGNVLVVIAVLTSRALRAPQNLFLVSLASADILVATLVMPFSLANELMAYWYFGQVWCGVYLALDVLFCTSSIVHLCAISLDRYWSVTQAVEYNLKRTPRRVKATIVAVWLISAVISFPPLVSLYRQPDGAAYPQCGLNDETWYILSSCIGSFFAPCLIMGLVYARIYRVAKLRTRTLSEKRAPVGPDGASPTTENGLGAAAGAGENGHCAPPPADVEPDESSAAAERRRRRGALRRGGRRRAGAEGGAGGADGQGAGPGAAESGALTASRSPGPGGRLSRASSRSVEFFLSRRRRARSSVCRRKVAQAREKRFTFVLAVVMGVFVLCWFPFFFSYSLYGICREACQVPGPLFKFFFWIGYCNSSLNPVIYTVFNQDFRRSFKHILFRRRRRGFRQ
- procedure_details: compounds altering alpha2C-coupled GIRK flux – cell-based, HEK293 alpha2C/GIRK1/2, thallium flux, primary screen (AID 624);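 further: slope of fluorescence ratio to pre-addition baseline per second over 15 to 24 s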
- condition_context: thallium flux BTC fluorescence, at 10 µM, actives lie on both sides
Rule for this label: criterion met means slope is less than 0.006; criterion not met means slope is at least 0.006.

CC(=O)c1ccc2c3c(cccc13)C(=O)N(c1c(C)nn(C)c1C)C2=O	criterion met

Is 0.006 strictly greater than the molecule's reported slope? molecule: `O=C(CSc1nnc(-c2ccccn2)n1Cc1ccccc1)N1CCCC1`
criterion not met

Lab note: slope threshold 0.006. Does this molecule come in strictly under it? `CCOC(=O)N1CCN(Cc2cc(=O)oc3ccc4ccccc4c23)CC1`
criterion met

Dear colleague, could you confirm whether slope of `CC(C)c1ccc(CNc2ccc(N3CCOCC3)cc2)cc1` falls below 0.006? Thanks.
criterion met

Given the entry `O=C(CSc1nc2ccccc2[nH]1)N1CCCCC1` , would its reported slope be below 0.006?
criterion met

Please indicate whether the reported slope of `COc1cccc(NC(=O)c2ccccc2NS(C)(=O)=O)c1` is strictly below 0.006.
criterion met

Does the reported slope of `O=C(Nc1ccc2oc(=O)ccc2c1)c1cccnc1` stay below 0.006?
criterion met

----------
- procedure_details: reduction of polyQ htt aggregates in cells – imaging, exon1htt(103Q)mCFP cells, high-content imaging, primary screen (AID 483);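 further: compound exposure lasted 3 days before fixation; percent of the per-plate median nuclei count of sample wells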
- condition_context: exon1htt(103Q)mCFP cell line, aggregate imaging, at 2 µM; measured here: cell count, toxicity
Each item that follows carries a reported nuclei count.
// return numeric value only (unit: %, not printed)

Field: example entries. Status: answers known.
Cc1ccc(CS(=O)(=O)CCC(=O)NCC2CCCO2)cc1 (configuration not stated)	99.3
CC1Cc2nc(SCC(=O)N3CCCc4ccccc43)n(C)c(=O)c2S1 (configuration not stated)	46.7
CCN(C(=O)c1c(-c2ccccc2)noc1C)c1ccccc1	106

Look up nuclei count of `CCNS(=O)(=O)c1ccc(S(=O)(=O)N(Cc2ccccn2)C2CCCCC2)cc1` and report it.
108

State, in one line, measured nuclei count of `O=C(Cn1[nH]c(=O)c2ccccc2c1=O)OCC(=O)N1CCCc2ccccc21`
98.2

Answer with the recorded nuclei count for the molecule listed here: `CCS(=O)(=O)c1nc2ccccc2n1CC(=O)N1CCCCC1`
89.2

Return nuclei count for the following molecule: CCN(CC)C(=O)C1CCC(CNS(=O)(=O)c2cccc3cccnc23)CC1 (configuration not stated)
94.4

----------
- procedure_details: inhibitors of TNFa-induced NFkB p65 translocation, primary screen, imaging, HUVEC, MLSMR starter and 10KST1 sets (AID 438);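 further: compound added about 3h40 before a 20 min TNFalpha stimulation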
- condition_context: HUVEC TNFa-induced p65 nuclear translocation; measured here: nuclei count (cytotoxicity indicator), at 2.08 µM
Each record gets a class by cell count: range 1: < 400; range 2: ≥ 400 and < 600; range 3: ≥ 600

Worked examples follow.
NS(=O)(=O)c1ccc(CCNC(=O)CCC2COc3ccccc3O2)cc1 (configuration not stated)	range 2
Cn1c(SCC(=O)c2ccc(-c3ccccc3)cc2)nnc1-c1ccco1	range 1
c1ccc(CCc2nc(-c3cccnc3)no2)cc1	range 3
COCCCN1C(=O)C(=O)/C(=C(/O)c2ccc(OC)cc2)C1c1ccc(O)c(OC)c1 (configuration not stated)	range 2
CCCCc1c(O)nc(SCC(=O)Nc2ccc3c(c2)CCC3)[nH]c1=O	range 2
COc1ccc(N(C)C(=O)CCS(=O)(=O)c2cccc3nonc23)cc1	range 3

Any idea which band `Clc1ccc(OCCCn2cncn2)cc1Cl` is in?
range 2

Which category fits this record: CC(=O)N1C(=O)C2(C(C#N)=C(N)Oc3cc(C)oc(=O)c32)c2ccccc21 (configuration not stated)
range 2

----------
- procedure_details: TLR3 IRF3 reporter activation blockers – cell-based, poly I:C stimulus, luciferase, 10K MLSCN set, primary screen (AID 602277)
- condition_context: HEK293-TLR3 RL24 IRF3 luciferase reporter, at 10 µM, stronger effect = higher value
test_readout: inhibition (%)
Just the number please, in %, no unit attached.

c1ccc(Cn2nnc3c(N4CCC5(CC4)OCCO5)ncnc32)cc1	6.57
CC1CC(C)CN(CC(=O)Nc2ccc(S(N)(=O)=O)cc2)C1 (configuration not stated)	12.5
Cc1cccc(OCc2nc(C#N)c(NCCN(C)C)o2)c1	28.8
CCOC(=O)C1CCN(C(=O)Nc2ccc3nc(C)c(C)nc3c2)CC1	5.19
COc1ccccc1OCc1ccc(C(=O)N2CCN(C(=O)c3ccco3)CC2)cc1	18
Cc1cc(NC(=O)CS(=O)(=O)c2cn(Cc3cccc(F)c3)c3ccccc23)no1	0.399

Name the recorded inhibition of the molecule listed here: `CCCn1c(=O)c(C(=O)NCc2ccccn2)c(O)c2ccccc21`
-53.3

----------
- procedure_details: inhibitors of TNFa-induced NFkB p65 translocation, primary screen, imaging, HUVEC, MLSMR starter and 10KST1 sets (AID 438);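 further: compound added about 3h40 before a 20 min TNFalpha stimulation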;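 on inhibition: signal is the nuclear over cytoplasmic p65 intensity ratio per well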
- condition_context: HUVEC TNFa-induced p65 nuclear translocation; at 2 µM, stronger effect = higher value, 0% TNFa-plus-vehicle, 100% no-TNFa wells
test_readout: inhibition (%)
Answer in %, number only, no unit symbol.

Here's what some known entries look like.
O=C(CSc1nc2ccccc2o1)NC(=O)NCc1ccco1	-1.8
NS(=O)(=O)c1ccc(NC(=O)CSc2nnc(Cc3cccs3)n2-c2ccccc2)cc1	-10.8
Cc1cc(C)nc(-n2nc(C)cc2NC(=O)c2ccc(Br)o2)n1	-7.3

Identify inhibition associated with the compound `O=C(Nc1cccc(NC(=O)c2cccnc2)c1)c1cccnc1`
-3.3

Quick one: give measured inhibition for `c1cnc(NCCNc2ncccn2)nc1`
-5

----------
Measured fluorescence slope, listed per entry.
- measured_on: Voltage-gated potassium channel subunit beta-2 (Rattus norvegicus) (UniProt P62483)
- Sequence (P62483 whole entry, looked up): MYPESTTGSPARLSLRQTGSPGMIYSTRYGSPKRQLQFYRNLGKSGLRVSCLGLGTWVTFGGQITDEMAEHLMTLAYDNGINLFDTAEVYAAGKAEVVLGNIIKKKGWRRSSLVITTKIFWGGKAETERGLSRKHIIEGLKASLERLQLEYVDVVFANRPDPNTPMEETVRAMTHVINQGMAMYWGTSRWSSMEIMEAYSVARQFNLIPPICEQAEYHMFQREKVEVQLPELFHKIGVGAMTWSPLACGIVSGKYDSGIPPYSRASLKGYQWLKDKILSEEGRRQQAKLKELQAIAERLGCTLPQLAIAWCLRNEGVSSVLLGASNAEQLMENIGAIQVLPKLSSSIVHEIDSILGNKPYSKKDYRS
- procedure_details: inhibitors of rat Kvbeta2 reductase activity – biochemical, NADPH fluorescence, primary screen (AID 622);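 further: slope of raw intensity against log time taken from 70 to 1610 s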
- condition_context: recombinant KvBeta, 4-cyanobenzaldehyde reduction, at 10 µM, stronger effect = higher value
// response body must contain only the number

Observe how each entry below is paired with its result.
CCCC(=O)Nc1ccc(NC(=O)C2CC2)cn1	-0.527
COc1ccc(OC)c(C(=O)c2nc3c(n2O)CCCCC3)c1	-0.567
CCCSc1nc2c(c(=O)[nH]c(=O)n2C)n1CCc1ccccc1	-0.507
N#C/C(C(=O)c1ccccc1)=C1/CCCN1	-0.567
S=C(NCC1CCCO1)n1nnc2ccccc21 (stereo not drawn)	-0.399

Report measured fluorescence slope on Voltage-gated potassium channel subunit beta-2 (Rattus norvegicus) (UniProt P62483); entry: COc1ccc(C(O)Cn2c(=N)n(CCCN(C)C)c3ccccc32)cc1 (stereo not drawn)
-0.587

Fill in: fluorescence slope on Voltage-gated potassium channel subunit beta-2 (Rattus norvegicus) (UniProt P62483), entry CC(C)(C)NC(=O)C(Cc1ccccc1)NS(=O)(=O)c1cccc2nsnc12 (stereo not drawn)
-0.413

Provide Voltage-gated potassium channel subunit beta-2 (Rattus norvegicus) (UniProt P62483) fluorescence slope reading for `Cc1ccc2c(c1)CCCN2C(=O)c1ccc2c(c1)OCO2` .
-0.457
